assay: Biodistribution of radiopharmaceuticals in RAP-deficient mice and control strain C57BL/6J, organs, urine and faeces counted for radioactivity; type: in vivo; details: mouse, kidneys, total radioactivity; Control mice (C57BL/6J), single intravenous injection 1-2 μCi/animal, 24 hours post injection, n = 3
Square brackets hold non-standard residues; d marks the D form. Peptide text beside a SMILES is read from it. * marks the point of attachment. X1 = NCCCC[C@H](NC(=O)[C@H](CS)NC(=O)[C@H](CCCCN)NC(=O)[C@@H](N)CNC(=O)C*)C(N)=O; NMeF = CN[C@@H](Cc1ccccc1)C(=O)O; hCys = N[C@@H](CCS)C(=O)O

molecule: CC(C)[C@@H]1NC(=O)[C@H](CCCCN)NC(=O)[C@@H](Cc2c[nH]c3ccccc23)NC(=O)[C@H](Cc2ccc(O)cc2)NC(=O)[C@H](Cc2ccccc2)N(C)C(=O)[C@H](CCSCC(=O)NC[C@H](N)C(=O)N[C@@H](CCCCN)C(=O)N[C@@H](CS)C(=O)N[C@@H](CCCCN)C(N)=O)NC1=O [Tc-99m-NeoTect ®, metal not drawn] (cyclo([hCys](X1)[NMeF]Y[dW]KV))
tissue uptake at 24 h: 261 %ID/g
